Recorded values, source patent US20220073617A1.

// values below are reported koff
target: T1, monovalent hVISTA-ECD (human VISTA extracellular domain with His tail) (human, UniProt Q9H7M9 33-193); experiment: SPR, pH 6.0
T1 construct: analyte flowed over captured antibody; also called huVISTA-His
T1 sequence (Q9H7M9 other isoform, or with tags, fused parts or gaps limits assumed): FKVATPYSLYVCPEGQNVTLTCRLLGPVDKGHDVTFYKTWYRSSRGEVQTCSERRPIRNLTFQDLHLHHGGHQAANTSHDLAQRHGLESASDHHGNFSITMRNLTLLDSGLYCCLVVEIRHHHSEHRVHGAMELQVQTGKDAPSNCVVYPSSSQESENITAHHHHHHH
I only need the number, in s⁻¹, no unit after it.

Example cases with answers are listed next.
binder: P1-065333 (41F11_VH_T28P/Y50W/S55E/L96E/Y100E VK_A64G) (antibody, human IgG1, kappa, V domains shown, IgG1.3; also called P1-065333-1; VISTA.4 pH-independent progeny) VH: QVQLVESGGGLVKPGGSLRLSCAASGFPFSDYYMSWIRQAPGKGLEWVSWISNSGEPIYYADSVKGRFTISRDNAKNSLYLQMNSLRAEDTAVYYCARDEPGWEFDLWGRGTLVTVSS VL: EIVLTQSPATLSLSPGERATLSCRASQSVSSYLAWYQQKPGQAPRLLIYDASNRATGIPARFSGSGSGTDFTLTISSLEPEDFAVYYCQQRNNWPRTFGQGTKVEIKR
koff [s⁻¹]: 0.0018
//
binder: P1-064391 (41F11_HC_Mutant: D31E/Y50W/S55E/Y100E 41F11_LC_Mutant: V29D/A64G/R91T) (antibody, V domains shown, Kabat positions; also called P1-064391-1) VH: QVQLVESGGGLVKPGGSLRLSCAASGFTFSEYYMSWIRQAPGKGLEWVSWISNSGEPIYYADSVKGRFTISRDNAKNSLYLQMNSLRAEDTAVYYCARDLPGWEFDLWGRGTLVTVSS VL: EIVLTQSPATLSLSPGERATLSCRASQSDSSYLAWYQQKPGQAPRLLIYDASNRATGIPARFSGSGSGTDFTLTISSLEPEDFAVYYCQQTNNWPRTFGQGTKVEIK
koff [s⁻¹]: 0.027

Continue with the binder presented below.
Request: Returns the measured koff for the input binder. Input: VISTA.4 A64G (41F11 Vk:A64G) (antibody, human IgG1, kappa, V domains shown, IgG1.3; also called P1-061520; P1-061520-10) VH: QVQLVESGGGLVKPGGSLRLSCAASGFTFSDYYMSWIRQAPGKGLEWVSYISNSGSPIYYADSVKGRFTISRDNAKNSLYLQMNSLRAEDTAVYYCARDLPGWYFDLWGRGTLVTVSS VL: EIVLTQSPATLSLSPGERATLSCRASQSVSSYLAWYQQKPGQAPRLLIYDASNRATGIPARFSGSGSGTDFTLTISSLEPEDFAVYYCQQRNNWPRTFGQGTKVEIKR
Result: 0.086
